Source of measurements: patent US8357673B2

Parameter: IC50. Scope: all listed entries.
molecular target: CDK2/cyclin E (Homo sapiens); construct: made in house; host or cells: Sf9 insect cells (baculovirus co-infection); assay: CDK2/cyclin E kinase inhibition assay (histone H1, [γ-33P]ATP); assay type: biochemical; details: averaged from triplicates; 15 μM ATP

Nc1n[nH]c(N)c1N=Nc1ccc(O)cc1 [Compound 12b] | 3.5 µM
Nc1n[nH]c(N)c1N=Nc1ccccc1C(=O)O [Compound 13b] | 88 µM
Nc1n[nH]c(N)c1/N=N/c1ccc(S(=O)(=O)c2ccc(/N=N/c3c(N)n[nH]c3N)cc2)cc1 [Compound 34d] | > 100 µM
CC(=O)NS(=O)(=O)c1ccc(N=Nc2c(N)n[nH]c2N)cc1 [Compound 18b] | > 100 µM
Nc1n[nH]c(N)c1/N=N/c1ccc(C(=O)c2ccc(/N=N/c3c(N)n[nH]c3N)cc2)cc1 [Compound 32d] | > 100 µM

Prompt: What value of measured IC50 is listed for Nc1n[nH]c(N)c1/N=N/c1ccc(Cl)cc1 [Compound 4b] ?
Completion: 45 µM

Prompt: And the next one, Cc1cc2nc(Cc3ccccc3N=Nc3c(N)n[nH]c3N)c(=O)[nH]c2cc1C [Compound 27b] ?
Completion: > 100 µM

Prompt: And the next one, Nc1n[nH]c(N)c1/N=N/c1cccc(S(=O)(=O)c2cccc(/N=N/c3c(N)n[nH]c3N)c2)c1 [Compound 35d] ?
Completion: > 100 µM

###

target: p70S6K (Homo sapiens, UniProt P23443); experiment: Kinase selectivity panel; assay type: biochemical
Sequence (P23443 whole entry): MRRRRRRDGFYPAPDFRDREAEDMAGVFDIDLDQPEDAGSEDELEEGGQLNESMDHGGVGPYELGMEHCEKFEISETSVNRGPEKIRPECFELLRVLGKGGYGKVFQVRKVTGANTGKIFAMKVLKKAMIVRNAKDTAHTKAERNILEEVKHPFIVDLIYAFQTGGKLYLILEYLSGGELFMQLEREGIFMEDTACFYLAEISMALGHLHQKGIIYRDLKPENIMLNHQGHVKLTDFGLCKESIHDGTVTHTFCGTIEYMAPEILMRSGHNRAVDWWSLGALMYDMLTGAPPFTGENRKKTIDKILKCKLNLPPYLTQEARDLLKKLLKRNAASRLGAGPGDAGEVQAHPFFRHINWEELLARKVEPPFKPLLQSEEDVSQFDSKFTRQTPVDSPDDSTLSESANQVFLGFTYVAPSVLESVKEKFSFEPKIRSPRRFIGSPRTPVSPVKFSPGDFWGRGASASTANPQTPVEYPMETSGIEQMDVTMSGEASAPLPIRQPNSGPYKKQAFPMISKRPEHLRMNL
measured.attribute: IC50

Prompt: What value of measured IC50 is listed for Nc1n[nH]c(N)c1N=Nc1ccc(O)cc1 [Compound 12b] ?
Completion: ~10 µM

###

experiment: In vitro cytotoxicity, Calcein AM, 72 h; type: cell-based, human; conditions: human, MCF7 cells (human breast adenocarcinoma); at 100 μM, 72 h; read-out: % of viable cells MCF7
Parameter: viability at 72 h, 100 µM. Scope: all listed entries.
Give the number; % is assumed, so skip it.

// worked examples, viability at 72 h, 100 µM included
Nc1n[nH]c(N)c1/N=N/c1cccc([N+](=O)[O-])c1 | 44
Nc1n[nH]c(N)c1N=Nc1ccc(O)cc1 [Compound 12b] | 20

Prompt: What value of measured viability at 72 h, 100 µM is listed for Nc1n[nH]c(N)c1/N=N/c1ccc([N+](=O)[O-])cc1 ?
Completion: 60

###

Parameter: IC50. Scope: all listed entries.
molecular target: CDK1/cyclin B (Homo sapiens, UniProt P06493); construct: made in house; host or cells: Sf9 insect cells (baculovirus co-infection); experiment: CDK1/cyclin B kinase inhibition assay (histone H1, [γ-33P]ATP); format: biochemical; conditions: averaged from triplicates; 15 μM ATP
Sequence (P06493 whole entry): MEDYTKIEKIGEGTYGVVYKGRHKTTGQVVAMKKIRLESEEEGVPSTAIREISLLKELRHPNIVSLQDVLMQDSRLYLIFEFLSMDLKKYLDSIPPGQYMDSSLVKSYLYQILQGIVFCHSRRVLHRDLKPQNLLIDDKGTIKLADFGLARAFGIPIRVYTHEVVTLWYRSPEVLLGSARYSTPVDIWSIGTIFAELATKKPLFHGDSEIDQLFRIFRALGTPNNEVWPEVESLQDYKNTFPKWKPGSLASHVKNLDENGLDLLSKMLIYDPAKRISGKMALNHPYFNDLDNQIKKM
Sequence (P14635 whole entry partner): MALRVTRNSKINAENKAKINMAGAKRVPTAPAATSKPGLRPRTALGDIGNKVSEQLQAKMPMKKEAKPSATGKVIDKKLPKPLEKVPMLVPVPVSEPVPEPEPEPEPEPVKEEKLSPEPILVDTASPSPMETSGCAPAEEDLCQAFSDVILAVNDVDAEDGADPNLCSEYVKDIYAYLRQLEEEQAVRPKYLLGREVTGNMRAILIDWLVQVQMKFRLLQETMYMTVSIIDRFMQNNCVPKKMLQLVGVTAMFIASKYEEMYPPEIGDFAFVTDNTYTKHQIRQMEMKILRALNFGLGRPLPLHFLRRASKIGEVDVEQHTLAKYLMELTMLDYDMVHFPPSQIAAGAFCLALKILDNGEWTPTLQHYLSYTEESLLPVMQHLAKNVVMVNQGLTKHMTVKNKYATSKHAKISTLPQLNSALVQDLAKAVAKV

Cc1c(/N=N/c2c(N)n[nH]c2N)c(=O)n(-c2ccccc2)n1C [Compound 31b] | > 100 µM
Nc1n[nH]c(N)c1/N=N/c1ccc(S(=O)(=O)c2ccc(/N=N/c3c(N)n[nH]c3N)cc2)cc1 [Compound 34d] | > 100 µM
COc1ccc(NS(=O)(=O)c2ccc(N=Nc3c(N)n[nH]c3N)cc2)nn1 [Compound 23b] | > 100 µM
Cc1cc2nc(Cc3ccccc3N=Nc3c(N)n[nH]c3N)c(=O)[nH]c2cc1C [Compound 27b] | > 100 µM
Nc1n[nH]c(N)c1/N=N/c1cccc(O)c1 [Compound 11b] | 6 µM
NCc1ccc(/N=N/c2c(N)n[nH]c2N)cc1 [Compound 17b] | > 100 µM
Nc1n[nH]c(N)c1/N=N/c1cccc(S(=O)(=O)c2cccc(/N=N/c3c(N)n[nH]c3N)c2)c1 [Compound 35d] | > 100 µM
Nc1n[nH]c(N)c1/N=N/c1ccc([N+](=O)[O-])cc1 | 16 µM

Prompt: What value of measured IC50 is listed for CC(=O)NS(=O)(=O)c1ccc(N=Nc2c(N)n[nH]c2N)cc1 [Compound 18b] ?
Completion: > 100 µM

Prompt: And the next one, Nc1n[nH]c(N)c1N=Nc1cccc(C(=O)O)c1 [Compound 14b] ?
Completion: 34 µM

Prompt: And the next one, Nc1n[nH]c(N)c1/N=N/c1ccc(I)cc1 ?
Completion: > 100 µM

Prompt: And the next one, Nc1n[nH]c(N)c1/N=N/c1ccccc1-c1nc2ccccc2[nH]c1=O [Compound 25b] ?
Completion: > 100 µM
